Every entry's value here was drawn from ChEMBL document CHEMBL3507680.

experiment: Human HepG2 cell viability assay in 384 well format; assay type: toxicity, cell-based; set-up: dose 125 nL, time 70.5 hour; concentration not given beside the values; settings: HepG2 cells, read-out: Inhibition
Quantity Kind: cytotoxicity at 70.5 h (%)
# number only, unit % dropped from output

Record "Cc1noc([C@@H]2C[C@H](NC(=O)C3CCCCC3)CN2C)n1" , field cytotoxicity at 70.5 h: 0.213

Record "O=C1CN(c2ccc(CNC(=O)Nc3nccs3)cc2)CCN1" , field cytotoxicity at 70.5 h: 1.2

Record "Cc1ccc2nc(C(=O)N3C[C@@H](C(=O)O)[C@H](c4ccccc4)C3)cn2c1" , field cytotoxicity at 70.5 h: -8.12

Record CC(c1ccc(F)cc1F)N1CCN(CCN2CCCC2=O)CC1 (stereo not given) , field cytotoxicity at 70.5 h: -4.44

Record "CN(Cc1ccsc1)C(=O)CS(=O)(=O)Cc1ccc(Cl)c(Cl)c1" , field cytotoxicity at 70.5 h: -9.28

Record "COC1CCN(c2ccc(NC(=O)Cn3cccn3)cc2)CC1" , field cytotoxicity at 70.5 h: -8

Record "CO[C@@H]1CC[C@H]2[C@H]1OCCN2C(=O)c1nn(C)c2ccccc12" , field cytotoxicity at 70.5 h: 20.6

Record "Cc1ncsc1CNC(=O)NCC1(c2ccc3c(c2)OCO3)CC1" , field cytotoxicity at 70.5 h: 19

Record O=C(c1cc(=O)[nH][nH]1)N1CCCC2(CCC(=O)N(C3CCCC3)C2)C1 (stereo not given) , field cytotoxicity at 70.5 h: -5.45

Record c1ncn(CC2CN(CC3CCCC3)CCO2)n1 (stereo not given) , field cytotoxicity at 70.5 h: 0.357

Record "O=C1N[C@@H]2CCN(C(=O)C3CCC3)[C@@H]2C(=O)N1c1ccc(F)cc1" , field cytotoxicity at 70.5 h: 21.8

Record "Cc1ccc2c(n1)N(CCN(C)C)CCN(C(=O)c1ccsc1)C2" , field cytotoxicity at 70.5 h: -5.53

Record "N#CCCNC(=O)CN1CCC(c2cc3ccccc3[nH]2)CC1" , field cytotoxicity at 70.5 h: -10.1

Record "Cc1sc(Br)cc1S(=O)(=O)NCCN" , field cytotoxicity at 70.5 h: -7.86

Record "CCc1noc(CC)c1CC(=O)N1CCC(C(=O)NC(C)C)CC1" , field cytotoxicity at 70.5 h: -3.58

Record CCc1ccc(CN2CCC3(CC2)CC(N2CCN(C)CC2)CO3)cc1 (stereo not given) , field cytotoxicity at 70.5 h: 7.28

Record O=C1CCC2(CCCN(C(=O)c3ccco3)CC2)N1 (stereo not given) , field cytotoxicity at 70.5 h: -3.81

Record "COc1ccc(-n2cc(CNC(=O)c3cc[nH]n3)nn2)cc1" , field cytotoxicity at 70.5 h: -3.5

Record "O=C(O)c1nc(SCc2ccccc2)ncc1Br" , field cytotoxicity at 70.5 h: -8.29

Record CC(C)C(C)NC(=O)CN1CCSCC1 (stereo not given) , field cytotoxicity at 70.5 h: -2.11

Record O=C1CC(N(C(=O)Cc2csc(-c3ccccc3)n2)C2CC2)C(=O)N1 (stereo not given) , field cytotoxicity at 70.5 h: -1.89

Record "CCOc1ccnc(N2CCN(C(=O)c3cn[nH]c3C)CC2)n1" , field cytotoxicity at 70.5 h: 13.7

Record CC(SCCC(=O)NC(N)=O)c1cccc(F)c1 (stereo not given) , field cytotoxicity at 70.5 h: 15.9

Record CC(O)C(=O)N1CCC(c2nccn2Cc2cscn2)CC1 (stereo not given) , field cytotoxicity at 70.5 h: 23.7

Record "O=C(NC1CCCC1)c1n[nH]c2c1CNCC2" , field cytotoxicity at 70.5 h: -12.1

Record Cc1ccc2c(c1)OC(C)(C)CC2NC(=O)C1CCN(C)CC1 (stereo not given) , field cytotoxicity at 70.5 h: -9.96

Record "CCCn1nnc(NCc2cc(Br)cc(Br)c2OC)n1" , field cytotoxicity at 70.5 h: -9.35

Record "Cc1noc([C@@]23CCO[C@@H]2CCN(C(=O)c2ccsc2)C3)n1" , field cytotoxicity at 70.5 h: -1.85

Record O=C(NC1CCS(=O)(=O)C1)c1ccc(SCc2cscn2)cc1 (stereo not given) , field cytotoxicity at 70.5 h: -6.01

Record "CCN(Cc1ccc2c(c1)OCCO2)S(=O)(=O)N(C)C(C)C" , field cytotoxicity at 70.5 h: -7.62

Record CC(CO)NC(=O)c1ccc(NCc2ccccc2)cc1 (stereo not given) , field cytotoxicity at 70.5 h: -7

Record "Cc1oc(-c2ccc(F)cc2F)nc1CN1C[C@@H](C)O[C@@H](C)C1" , field cytotoxicity at 70.5 h: 15.1

Record Cn1ccc(C(=O)N2CCC3(CCN3c3ncccn3)C2)n1 (stereo not given) , field cytotoxicity at 70.5 h: -1.24

Record "Cn1cccc1C(=O)N1CCO[C@@H]2CN(Cc3nccs3)C[C@@H]2C1" , field cytotoxicity at 70.5 h: -6.7

Record "CCCC(=O)NCc1ccc(N2CCCCC2)cc1" , field cytotoxicity at 70.5 h: -10.2

----------
assay: Human HepG2 cell viability assay in 384 well format; type: toxicity, cell-based; set-up: dose 125 nL, time 70.5 hour; concentration not given beside the values; details: HepG2 cells, read-out: Inhibition
Quantity Kind: cytotoxicity at 70.5 h (%)
# number only, unit % dropped from output

Record "FC(F)Oc1ccc(NCc2nc(C3CC3)no2)c(OC(F)F)c1" , field cytotoxicity at 70.5 h: 1.35

Record CCc1nnc(CN(C)C(=O)C(CC)n2c(CC)nc3ccccc32)o1 (centres undefined) , field cytotoxicity at 70.5 h: 3.98

Record "CN1CCC(O)(CNCc2ccc(F)c(C(F)(F)F)c2)CC1" , field cytotoxicity at 70.5 h: 22.4

Record "Cc1nc(CN(C)S(=O)(=O)c2ccc(F)cc2Br)no1" , field cytotoxicity at 70.5 h: 14.6

----------
experiment: Human HepG2 cell viability assay in 384 well format; type: toxicity, cell-based; parameters: dose 125 nL, time 70.5 hour; concentration not given beside the values; conditions: HepG2 cells, read-out: Inhibition
Provide the recorded cytotoxicity at 70.5 h for the entries that follow.
# number only, unit % dropped from output

Record "COCc1nc(-c2ccnc(N3CCNCC3)n2)no1" , field cytotoxicity at 70.5 h: 2.75

Record COc1ccccc1C(=O)NC(C)CC(=O)O (stereo not drawn) , field cytotoxicity at 70.5 h: -7.64

Record "Cc1nccc(CN2CCC(c3nnsc3S(C)(=O)=O)CC2)n1" , field cytotoxicity at 70.5 h: -21.3

Record "COC(=O)NCc1cc2n(n1)CCCN(C(C)=O)C2" , field cytotoxicity at 70.5 h: -7.46

Record "CN(CCc1ccccc1)c1cnn(C)c(=O)c1Br" , field cytotoxicity at 70.5 h: -15.5

Record Cc1nc(C)n(CC2CCCCN2CC(=O)N(C)Cc2ccco2)n1 (stereo not drawn) , field cytotoxicity at 70.5 h: -1.35

Record "NC(=O)CNC1(c2ccc(Br)cc2)CCOCC1" , field cytotoxicity at 70.5 h: 22.4

Record Cc1ccc2nc(C3CCCN3Cc3csc(C)n3)[nH]c2c1 (stereo not drawn) , field cytotoxicity at 70.5 h: -6.25

Record Cn1ncc2c1CCCC2NCc1ccc(Cl)s1 (stereo not drawn) , field cytotoxicity at 70.5 h: 4.18

Record "COCCOC[C@]1(CNC(=O)c2ccc(OC)cc2)C[C@@H](O)[C@@H](O)C1" , field cytotoxicity at 70.5 h: -4.22

Record CCC(CNC(=O)c1cc(OC)ccc1Br)N1CCc2ccccc2C1 (stereo not drawn) , field cytotoxicity at 70.5 h: 7.55

Record O=C1CC2(CCN(Cc3ccco3)C2)CN1c1ccc2c(c1)OCO2 (stereo not drawn) , field cytotoxicity at 70.5 h: 11.6

Record "COc1ccccc1Oc1ncccc1CNC(=O)CN1CCCC1=O" , field cytotoxicity at 70.5 h: -4.31

Record Cc1nc(CN2CCCC(c3nc(C)n4c(C)c(C)sc34)C2)co1 (stereo not drawn) , field cytotoxicity at 70.5 h: 21

Record O=C(c1ccc[nH]1)N1CCN(C(c2ccccc2)C(F)(F)F)CC1 (stereo not drawn) , field cytotoxicity at 70.5 h: -7.16

Record "CCCc1cnc(C)nc1N1CCC(F)(F)CC1" , field cytotoxicity at 70.5 h: -9.65

Record "CC(C)Cn1ncc2cc(C(=O)N(C)CCc3ccccc3)cnc21" , field cytotoxicity at 70.5 h: -8.96

Record CCOC1CCCN(C(=O)CCOc2ccc(C)cc2OC)C1 (stereo not drawn) , field cytotoxicity at 70.5 h: 24.8

----------
Provide the recorded cytotoxicity at 70.5 h for the entries that follow.
assay: Human HepG2 cell viability assay in 384 well format; format: toxicity, cell-based; design: dose 125 nL, time 70.5 hour; concentration not given beside the values; conditions: HepG2 cells, read-out: Inhibition
# number only, unit % dropped from output

Record "O=C(Cc1ccc(F)cc1Cl)N1C[C@@H](CN2CCC(O)CC2)[C@@H](CO)C1" , field cytotoxicity at 70.5 h: -3.43

Record CCC(CO)N(C/C(C)=C/c1ccco1)Cc1ccco1 (centres undefined) , field cytotoxicity at 70.5 h: -3.88

Record "N#Cc1ccc(CNC(=O)NCCC(=O)NC2CCCC2)c(F)c1" , field cytotoxicity at 70.5 h: -2.28

Record "O=C(Cc1cccs1)NCCNc1nccc(C(F)(F)F)n1" , field cytotoxicity at 70.5 h: -3.67

Record COc1nccnc1N1CCC2(CCCN(C(C)C)C2=O)C1 (centres undefined) , field cytotoxicity at 70.5 h: -4.89

Record CCc1noc(C2CCCCN2C(=O)c2cc(C)on2)n1 (centres undefined) , field cytotoxicity at 70.5 h: -6.42

Record "CCn1cc(NC(=O)C2CCN(Cc3noc(C4CC4)n3)CC2)cn1" , field cytotoxicity at 70.5 h: -8.03

Record "CCn1cnnc1CNC(=O)c1ccc(Cl)cc1I" , field cytotoxicity at 70.5 h: -7.84

Record "O=C(c1ccc(O)nc1)N1CCN(C(=O)c2ccc(F)c(F)c2)CC1" , field cytotoxicity at 70.5 h: -2.92

Record "Cc1nc(CO[C@H]2CN(C(=O)c3cnoc3C)[C@@H]3COC[C@H]23)cs1" , field cytotoxicity at 70.5 h: -3.09

Record "Cc1cc(C)n(C2CN(c3ncnc4c3CCC4)C2)n1" , field cytotoxicity at 70.5 h: -10.3

Record "Cc1ccc(N2CC[C@H]3C[C@H](C(=O)NCc4ccco4)O[C@H]3C2)nn1" , field cytotoxicity at 70.5 h: -11.1

Record "NC(=O)CN1C(=O)CO[C@H]2CN(Cc3ccc(C(F)(F)F)cc3)C[C@H]21" , field cytotoxicity at 70.5 h: -1.74

Record CC(CN1CCOCC1)OC(=O)c1ccccc1Cl (centres undefined) , field cytotoxicity at 70.5 h: -19.2
